Hello, the source for this data is the supplement of paper PMC6555819, in case you need it.

# System: VDR:RXRa (NR concentration 270 nM, RXRa partner concentration 90 nM)
# methodSummary: PBM binding z-score (relative to random genomic background probes); higher = stronger binding; sequences stand for … in GC…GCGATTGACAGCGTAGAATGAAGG
Please use Y whenever PBM binding z-score is not below 1, and N whenever it is.

Reported PBM binding z-score reaches at least 1 for CGAACTAGGTCAAGGACAGTGAGTCTCCGCACGC ?
Y

Proceed to CGTCCAAGGTCAAAGGAGGTCAGTGAAGACAGAT
Y

Proceed to TTACCAAGGTGAAAGGTCGATGATGCACGCCTTG
Y

Proceed to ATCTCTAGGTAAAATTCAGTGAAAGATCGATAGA
N

Proceed to CAAACTAGGTCACCGGAAGGTCAAAATCCGCATG
Y

Proceed to CAGCCTAGGTCAGGGCCAGTAAAGGAGGAACGTT
N

Proceed to AGTCAAAGTTCAGAACGAGGTAACGTAAAGCACG
Y

Proceed to TCTTGTAGATCAGAGGTTAAGAAAGCCGAAGCCT
N

Proceed to ATCTCTAGGTAAAAGTTCAGTGGATCCCGAGGAT
Y

Proceed to CCGACTGGGGCAAAAAGGTTACCATACCATCCGG
Y

Proceed to AGAATGAGGTTATACGTGGATCAGGGAAGAAAGT
Y

Proceed to ATCTCTAGGTAAAGGTAGTTCAGTGAATGCAAAT
Y

Proceed to CCTCCTGGGCCAAAGGTCATTGATTCCAATGCTC
Y

Proceed to CCTGCTAGGTCACTGGTCAGCTAAAGCAGCTCGC
Y

Proceed to TTACCAAGGTGAGCTAAGGTCGTTGATCCAACTC
Y

Proceed to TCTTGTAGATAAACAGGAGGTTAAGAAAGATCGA
N

---

# System: RARa homodimer (NR concentration 270 nM)
# methodSummary: PBM binding z-score (relative to random genomic background probes); higher = stronger binding; sequences stand for … in GC…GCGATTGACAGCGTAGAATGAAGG
Please go through the items and note down their PBM binding z-score.
Response field accepts a number only; no unit should be typed.

Report PBM binding z-score for TCGAGGAGGTTACCAATGGGGCATTCAGCTTTCT please.
-0.136

Proceed to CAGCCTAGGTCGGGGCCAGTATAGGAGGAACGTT
-1.01

Proceed to TCTAGCAGGCCTGAGGGTCACTCAAGAGGTACGG
-0.571

Proceed to TCTTGTATATCAGCAGGTTAAGAAAGCTGGCCAA
0.982

Proceed to GCATATAGGTAATACAAGGTGAAAGTGCGATTGT
0.831

Proceed to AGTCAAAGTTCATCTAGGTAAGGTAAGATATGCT
1.68

Proceed to ATCGAAAGGTCGACGAGGTGAGTCTACACCGTTT
0.442

Proceed to GGAACGAGGGCAAGTTGATAGGAGAGTTTGATGG
-0.204

Proceed to TCTTGTAGCTCAATAGAGGTTAAGAAAGTGCGCT
-0.147

Proceed to CCTATAAGTTGACCATAAGGGCAACCGAAGCTCG
1.27

Proceed to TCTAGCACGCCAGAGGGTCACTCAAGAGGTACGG
-0.679

Proceed to CGTCCAAGGTCAGAGAGGTAAGTGAATGCCGAGT
0.288

Proceed to ATCTCGAGGTAACAAGTTCAGTGAAAGAGAGGAC
0.416

Proceed to ATCTCTAGGTAAAAGTTCAGTAAATCCCGAGGAT
1.92

Proceed to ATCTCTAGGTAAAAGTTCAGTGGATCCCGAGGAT
1.18

Proceed to CCTTACGGGTCACGAGGTTATAGAACGACGAGCG
0.736

Proceed to TCTATTAGTTGATTAGGGCAACAGAAACAGCGGA
1.08

Proceed to ATACCAAGGTGATCGTGAGGTCATTGATACTAAC
0.789

---

Please go through the items and note down their PBM binding z-score.
# Test system: PPARg DBDmut:RXRa IVT, anti-PPARg (DBD mutation: PPARg1 K132A/R137A, NR concentration 270 nM, RXRa partner concentration 90 nM)
# methodSummary: PBM binding z-score (relative to random genomic background probes); higher = stronger binding; sequences stand for … in GC…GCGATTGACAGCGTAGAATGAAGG

Report PBM binding z-score for ACTATTAGTTGAGACGAGGGCAACCGATAGGTTG please.
0.785

Proceed to TGTTGTAGATCAGCAGGTTAAGAAAGCTGGCCAA
-0.00533

Proceed to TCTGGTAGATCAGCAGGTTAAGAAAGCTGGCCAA
-0.344

Proceed to AGTATTAGTTGAGACGAGGGCAACCGATAGGTTG
0.458

Proceed to GCGACTGGGGCATCAGCAGGTGACCATAACTTAA
-0.697

Proceed to GTACCAAGGTGAATAGGTGGTTGATGAGTAGGCG
0.268

Proceed to CCTACTGTGCCATCAGGTCATTGATATCAACGTT
2.09

Proceed to CCTCGGGGGACAACAGGAGGTCAGAGCTGCCAGA
0.461

Proceed to CCTACTGGGCCACGAAAGGTCATCGATTCAGTGA
-0.47

Proceed to TCATATAGGTAAATGCTAGGTGATAGTCCGATCT
0.855

Proceed to GATACAGGGTCAGCAAGAGGCCAGAGTATGGAAA
-0.173

Proceed to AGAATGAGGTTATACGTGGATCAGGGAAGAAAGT
1.26

Proceed to TCTTGTAGATCAAAGGTTAATAAAGCCGAAGCCT
0.977

Proceed to CAAACTAGGTCAAGAGGTCAAAGCCCGCTTCCCG
4.39

Proceed to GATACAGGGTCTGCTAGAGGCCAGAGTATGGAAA
-1.05

Proceed to CCTCGGAGGACAACAGGAGGTCAGAGTTGCCAGA
-0.9

Proceed to TCGAGTAGGATACCAATGGGGCATTCAGCTTTCT
-0.244

Proceed to TAGCCTAGGTCAGATCGGGCCACTATACGCTATA
-0.3

Proceed to CGAACGAGGGCATGAGTTGATAGCCAATGCCGAT
0.281

Proceed to TCATATAGGTAGATGCTAGGTGAAAGTCCGATCT
0.387

Proceed to AATACAGGGTCACTAGGCCTGAGTAGGTACGAAT
1.25

Proceed to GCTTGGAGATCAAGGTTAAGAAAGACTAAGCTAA
-0.0376

Proceed to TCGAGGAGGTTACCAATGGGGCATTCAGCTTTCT
-0.386

Proceed to CCTTACGGGTCACTCCAGGTTATAGCGTCGGAGT
0.79

Proceed to ATACTAAGGTGATCGTGAGGTCGTTGATACTAAC
0.74

Proceed to TAGCCTAGGCCAGATCGGGCCAGTATACGCTATA
-0.211

Proceed to CAAACTAGGCCACAGAGGTCAAAGTCCGTGCGTA
2.08

Proceed to TCTTGTAGATCAATAGAGGTTAACAAAGTGCGCT
0.608

Proceed to TAGCCTAGGTCATTCTGGGGCCAGTATAGAAAGC
0.208

Proceed to CAAACTAAGTCACAGAGGTCAAAGTCCGTGCGTA
0.32

Proceed to TGAATGAGGTTAAAGATCAAGGAACGTGGCGTCG
0.538

Proceed to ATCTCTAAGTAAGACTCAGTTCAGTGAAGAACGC
0.885

Proceed to GCTGCTAGGTCAACTGATGGTCGGCTAAAGCTCG
0.404

Proceed to CTCGAAAGGCCGGTTGAGGTGAGTATACGGATAA
-0.611

Proceed to TTACCAAGGTGAGCTTAGGTCGTTGATCCAACTC
-0.375

Proceed to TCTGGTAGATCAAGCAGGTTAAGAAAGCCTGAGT
-0.408

Proceed to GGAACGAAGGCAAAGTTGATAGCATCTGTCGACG
-0.0938

Proceed to CCGACTGGGGCAGAAAGGTTACCATGCCATCCGG
-1.53

Proceed to CCTACTGGGCCATCTGGTCATTGATATCAACGTT
0.821

Proceed to TCATATAGGTAAGGGTGAAAGTCGAACGATATGA
1.53

Proceed to CCTGCTAGGTCAATGGTCAACTAAAGCAGCTCGC
0.116

Proceed to AGTCAAAGTTCAGGACGAGGTAACGTCAAGCACG
0.047

Proceed to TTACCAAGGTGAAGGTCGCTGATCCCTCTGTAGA
-0.525

---

# Tested on: PPARg:RXRa 30nM:10nM, anti-RXR (NR concentration 30 nM, RXRa partner concentration 10 nM)
# methodSummary: PBM binding z-score (relative to random genomic background probes); higher = stronger binding; sequences stand for … in GC…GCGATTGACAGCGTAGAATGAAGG
Please use true whenever PBM binding z-score is not below 1, and false whenever it is.

Reported PBM binding z-score reaches at least 1 for ACTATTAGTTGAGACGCGGGCAACCGATAGGTTG ?
false

Proceed to ATATGTAGGTTAGGTGGGGTCATTCAGACTAGGC
true

Proceed to ATATGTAGGTTAGCTGGGGTCATCCAGACTAGGC
true

Proceed to CGAACTAGGTCATTGACAGGACAGTGTATAGTAA
true

Proceed to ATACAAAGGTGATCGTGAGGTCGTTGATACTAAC
false

Proceed to CCTTACGGGTCACTTCAGGTTATAGCATCGGAGT
true
